assay: physchem; details: organic solvents (DMSO, CHCl3, CH2Cl2, MeOH and EtOH)
Non-standard residues stand in square brackets, D forms with d. Residues, ends and D or L forms follow the SMILES beside them. *: point of attachment. Arachidoyl = CCCCCCCCCCCCCCCCCCCC(=O)*; NMeV = CN[C@H](C(=O)O)C(C)C

COMPOUND | solubility
CCCCCCCCCCCCCCCCCCCC(=O)N[C@H](Cc1ccccc1)C(=O)N(C)[C@H](C(=O)N[C@H](C(=O)N[C@@H](Cc1ccccc1)C(=O)N[C@@H](C)C(=O)OC)[C@@H](C)CC)C(C)C [L5P] (Arachidoyl-[dF][NMeV]IFA-OMe) | < 1000 µg/mL
